Where a name gives a salt, the structure may show the parent alone.
melting point for assorted molecules

molecule	modifier	melting point [°C]
O=c1[nH]c2ccc3c(c2o1)OC(CNCc1ccccc1)CO3 (centres unmarked) (as salt: fumarate) (hydrate or solvate) [Example 2]	=	220
NCC1COc2ccc3[nH]c(=O)oc3c2O1 (centres unmarked) (as salt: HCl) [Example 1]	>	250
O=c1[nH]c2ccc3c(c2o1)OC(CN(Cc1ccccc1)Cc1ccccc1)CO3 (centres unmarked) [Example 3]	=	210
O=c1[nH]c2ccc3c(c2o1)OC(CN1CC=C(c2c[nH]c4ccccc24)CC1)CO3 (centres unmarked)	=	202

====

molecular target: dopamine D2 receptor (Rattus norvegicus, UniProt P61169); construct: from tissue; host or cells: rat striatal brain tissue homogenate; experiment: Dopamine D2 receptor affinity, 3H-quinpirole binding in homogenized rat striatal brain tissue
Sequence (P61169 whole entry): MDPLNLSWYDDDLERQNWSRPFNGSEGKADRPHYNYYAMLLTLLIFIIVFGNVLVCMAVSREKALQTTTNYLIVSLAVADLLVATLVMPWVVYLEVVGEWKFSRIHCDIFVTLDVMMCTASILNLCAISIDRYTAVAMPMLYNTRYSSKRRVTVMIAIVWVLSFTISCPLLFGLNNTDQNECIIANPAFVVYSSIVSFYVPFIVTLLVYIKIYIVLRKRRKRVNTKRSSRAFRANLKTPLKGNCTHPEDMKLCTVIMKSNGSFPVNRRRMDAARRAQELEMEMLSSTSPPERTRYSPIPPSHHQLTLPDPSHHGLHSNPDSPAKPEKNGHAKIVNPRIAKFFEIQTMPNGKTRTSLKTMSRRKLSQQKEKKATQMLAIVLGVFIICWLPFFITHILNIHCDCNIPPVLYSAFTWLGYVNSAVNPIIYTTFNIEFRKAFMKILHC

compound	uom	IC50
O=c1[nH]c2ccc3c(c2o1)OC(CN(Cc1ccccc1)Cc1ccccc1)CO3 (stereo not shown) [Example 3]	nM	475
O=c1[nH]c2ccc3c(c2o1)OC(CNCc1ccccc1)CO3 (stereo not shown) [Example 2]	nM	0.16
O=c1[nH]c2ccc3c(c2o1)OC(CNCCCCc1ccccc1)CO3 (stereo not shown) [Example 4]	nM	2
NCC1COc2ccc3[nH]c(=O)oc3c2O1 (stereo not shown) [Example 1]	nM	3.7
